target or test system: T1, human BCMA with a His tag (ACROBiosystems, Catalog No.: BCA-H522y) (human)
T1 construct: Bought His-tagged recombinant protein; also called huBCMA-His; Recombinant human BCMA
T1 chain: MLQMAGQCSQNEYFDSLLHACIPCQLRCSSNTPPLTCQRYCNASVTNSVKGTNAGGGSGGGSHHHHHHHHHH
experimental protocol: SPR, Biacore T200
Description: The binding affinity of select anti-BCMA was measured on a surface plasmon resonance (SPR) instrument, Biacore T200™, against human BCMA by a method known in the art. In experiments performed essentially as described above, a subset of anti-human BCMA antibodies of the present disclosure bind human BCMA with a His tag (ACROBiosystems, Beijing, China, Catalog No.: BCA-H522y, SEQ ID NO:2) with affinity shown in Table 6.
The following binders are listed with their measured koff values.
The reply should be a number in s⁻¹, with the unit left off.

Before answering, review these 4 worked examples.
SCT-Aa01(h/h) (antibody, V domains shown, Full IgG format, chimeric: human IgG1 heavy chain constant region, human kappa light chain constant region) VH: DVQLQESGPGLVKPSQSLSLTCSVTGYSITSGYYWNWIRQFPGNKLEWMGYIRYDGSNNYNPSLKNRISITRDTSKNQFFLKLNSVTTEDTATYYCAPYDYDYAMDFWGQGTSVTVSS VL: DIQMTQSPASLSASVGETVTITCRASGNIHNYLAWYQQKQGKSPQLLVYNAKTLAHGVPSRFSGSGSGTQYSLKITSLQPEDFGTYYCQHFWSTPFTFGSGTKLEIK :: 0.0355
SCT-Aa03(m/m) (antibody, V domains shown, Full IgG format: mouse IgG1 heavy chain constant region, mouse kappa light chain constant region) VH: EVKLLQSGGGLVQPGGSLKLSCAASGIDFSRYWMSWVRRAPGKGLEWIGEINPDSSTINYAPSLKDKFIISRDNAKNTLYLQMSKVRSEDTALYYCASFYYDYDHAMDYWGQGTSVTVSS VL: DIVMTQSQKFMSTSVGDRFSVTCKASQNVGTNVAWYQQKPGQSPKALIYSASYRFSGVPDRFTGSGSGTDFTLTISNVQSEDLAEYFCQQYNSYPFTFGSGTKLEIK :: 0.00263
SCT-Aa05(h/h) (antibody, V domains shown, Full IgG format, chimeric: human IgG1 heavy chain constant region, human kappa light chain constant region) VH: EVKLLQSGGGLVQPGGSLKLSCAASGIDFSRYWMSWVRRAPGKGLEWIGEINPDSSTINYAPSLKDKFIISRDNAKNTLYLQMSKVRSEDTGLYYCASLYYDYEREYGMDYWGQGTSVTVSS VL: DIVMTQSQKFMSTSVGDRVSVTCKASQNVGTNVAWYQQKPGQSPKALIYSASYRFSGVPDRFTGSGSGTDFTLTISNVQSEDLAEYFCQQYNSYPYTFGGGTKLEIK :: 0.000995
SCT-Aa02(h/h) (antibody, V domains shown, Full IgG format, chimeric: human IgG1 heavy chain constant region, human kappa light chain constant region) VH: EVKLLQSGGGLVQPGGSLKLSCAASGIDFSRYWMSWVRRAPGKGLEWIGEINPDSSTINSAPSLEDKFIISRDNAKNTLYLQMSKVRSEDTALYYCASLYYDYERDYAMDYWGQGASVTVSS VL: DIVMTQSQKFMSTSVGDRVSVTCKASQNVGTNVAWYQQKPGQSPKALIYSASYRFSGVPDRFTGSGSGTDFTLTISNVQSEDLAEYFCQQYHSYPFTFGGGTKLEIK :: 0.000374

Now let's try a different one.
Task: Looking for the measured koff of SCT-Aa16(h/h) (antibody, V domains shown, Full IgG format, chimeric: human IgG1 heavy chain constant region, human kappa light chain constant region) VH: EVQLQQSGPELVKPGASVKMSCKGSGYTFTNYIMHWVKQKPGQGLEWIGYIIPYNDNTKYNEKFKGKATLTSDKSSSTAYMELSSLTSEDSAVYYCATYEYDVGLDYWGQGTTLTVSS VL: DLQMTQTTSSLSASLGDRVTISCSARQGIVNYLNWYQQKPDGTVKLLIYNTSSLHSGVPSRFSGSGSGTDYSLTISNLEPEDIATYYCQQYSKLPWTFGGGTKLEIK , can you help?
Result: 0.199
